target: chicken IgY (chicken); experiment: BLI; Octet, SAX (streptavidin) biosensors; recombinant Fabs against IgY; KD from a kinetic 1:1 model, global fit over multiple concentrations (partial fits averaged for 3 low-affinity Fabs)
Note to self: use T only for kon readings below 90000 M⁻¹ s⁻¹; a reading exactly at 90000 M⁻¹ s⁻¹ still gets F.

Worked set:
{"binder": "clone 2.1 Fab TA_15 (Fab, V domains shown) VH: EVQLQESGPSLVKPSQTLSLTCSVTGDSITSGYWNWIRKFPGNKLEYMGYISYSGSTYYNPSLKSRISITRDTSKNQYYLQLNSVTTEDTATYYCARDFDVWGAGTTVTVSS VL: DIVMTQSQKFMSTSVGDRVSVTCKASQNVGTNVAWYQQKPGQSPKALIFSASYRYSGVPDRFTGSGSGTDFTLTISNVQSEDLAEYFCQQYNSYPLTFGSGTKLEIK", "group": "F"}
{"binder": "clone 2.1 Fab TA_4 (Fab, V domains shown) VH: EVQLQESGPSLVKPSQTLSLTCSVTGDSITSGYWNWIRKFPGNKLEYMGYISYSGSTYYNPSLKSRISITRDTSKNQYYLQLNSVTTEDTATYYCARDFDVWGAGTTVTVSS VL: DIVMTQSQKFMSTSVGDRVSVTCKASQNVGTNVVWYQQKPGQSPKALIYSASYRYSGVPDRFTGSGSGTDFTLTISNVQSEDLAEYFCQQYDSYPLTFGSGTKLEIK", "group": "F"}
{"binder": "clone 2.1 Fab CB_07 (clonal burst) (Fab, V domains shown) VH: EVQLQESGPSLVKPSQTLSLTCSVTGDSITSGYWNWIRKFPGNKLEYMGYISYSGSTYYNPSLKSRISITRDTSKNQYYLQLNSVTTEDTATYYCGRDFDVWGAGTTVTVSS VL: DIVMTQSQKFMSTSVGDRVSVTCKASQNVGTNVAWYQQKPGQSPKALIYSASYRYSGVPDRFTGSGSGTDFTLTISNVQSEDLAEYFCQQYKSYPLTFGSGTKLEIK", "group": "F"}

Prompt: Strictly below 90000 M⁻¹ s⁻¹ in kon? clone 2.1 Fab L_11 (affinity ladder) (Fab, V domains shown) VH: EVQLQESGPSLVKPSQTLSLTCSVTGDSITSGYWNWIRKFPGNKLEYMGYISYSGSTYYNPSLKSRISITRDTSTNQYYLQLNSVTTEDTATYFCARDFDVWGAGTTVTVSS VL: DIVMTQSQKFMSTSVGDRVSVTCKASQNVGTNVGWYQQKPGQSPKALIYSASYRYSGVPDRFTGSGSGTDFTLTISNVQSEDLAEYFCQQYNSYPLTFGSGTKLEIK
Response: T
